Settings: rat; liver microsomes; pH 7.4; 15.0 min; 1.0 µM

>  <compound>
Cc1cccc(C)c1NC(=O)c1nc(SC(C)C)ncc1Cl

>  <unit text>
min

>  <result operator>
=

>  <half-life>
1.38

$$$$
>  <compound>
O=C(NCCN1CCOCC1)C1CC(=O)N(c2n[nH]c3cc(Br)ccc23)C1 (stereo unspecified)

>  <unit text>
min

>  <result operator>
>

>  <half-life>
30

$$$$
>  <compound>
COc1cccc(NC(=S)N2CCN(c3cccc(C(F)(F)F)c3)CC2)n1

>  <unit text>
min

>  <result operator>
=

>  <half-life>
17.6

$$$$
>  <compound>
CCN1C(=O)c2ccccc2[S@](=O)c2ccc(C(=O)NCc3ccc(F)cc3)cc21

>  <unit text>
min

>  <result operator>
=

>  <half-life>
12

$$$$
>  <compound>
CNC(=O)c1ccccc1Nc1nc(Nc2ccc(N3CCOCC3)cc2OC)ncc1Cl

>  <unit text>
min

>  <result operator>
>

>  <half-life>
30

$$$$
>  <compound>
O=[N+]([O-])c1cccc(CSc2nc3ncc(Br)cc3[nH]2)c1

>  <unit text>
min

>  <result operator>
=

>  <half-life>
6.6

$$$$
>  <compound>
CCOc1ccc(-c2nnc(SCC(=O)NCc3ccccc3Cl)o2)cc1

>  <unit text>
min

>  <result operator>
=

>  <half-life>
3.32

$$$$
>  <compound>
COc1cccc(O)c1CNc1ccc(S(=O)(=O)Nc2nccs2)cc1

>  <unit text>
min

>  <result operator>
=

>  <half-life>
8.9

$$$$
>  <compound>
CC1=C(C(=O)Nc2nnc(-c3ccccc3)s2)C(c2[nH]ncc2Cl)N=C(Nc2nc3ccccc3o2)N1 (stereo unspecified)

>  <unit text>
min

>  <result operator>
=

>  <half-life>
11

$$$$
>  <compound>
Cc1noc(C)c1CN1CCNc2cc(Nc3ccccc3)ncc2C1

>  <unit text>
min

>  <result operator>
=

>  <half-life>
5.25

$$$$
>  <compound>
Cc1ccc(S(=O)(=O)Nc2ccc(C(=O)Nc3ncc(-c4ccccc4)s3)cc2)cc1

>  <unit text>
min

>  <result operator>
=

>  <half-life>
11

$$$$
>  <compound>
COCCOc1cnc2ccn([C@H](C)c3nnc4c(F)cc(-c5cnn(C)c5)cn34)c(=O)c2c1

>  <unit text>
min

>  <result operator>
>

>  <half-life>
30

$$$$
>  <compound>
Cc1ccccc1S(=O)(=O)N1CCc2cc(-c3nc(NC(=O)Cc4ccc5c(c4)OCO5)sc3C)ccc21

>  <unit text>
min

>  <result operator>
=

>  <half-life>
5

$$$$
>  <compound>
Cc1ccc(S(=O)(=O)Nc2ccccc2CNc2nc(-c3ccccc3)cs2)cc1

>  <unit text>
min

>  <result operator>
=

>  <half-life>
1.6

$$$$
>  <compound>
COc1cc(-c2cc3c(nc2-c2ccccc2)nc(C(=O)NC2CCN(C)CC2)n3C)ccn1

>  <unit text>
min

>  <result operator>
>

>  <half-life>
30

$$$$
>  <compound>
CC(C)Oc1cccc(C2CC(=O)Nc3cc4c(cc32)OCO4)c1 (stereo unspecified)

>  <unit text>
min

>  <result operator>
=

>  <half-life>
3.46

$$$$
>  <compound>
COc1ccc(CNC(=O)Cn2nc3c(cc2=O)CCCC3)cc1

>  <unit text>
min

>  <result operator>
>

>  <half-life>
30

$$$$
>  <compound>
COc1c(C)c2c(c(O)c1C/C=C(\C)CCC(=O)OCCN1CCOCC1)C(=O)OC2

>  <unit text>
min

>  <result operator>
=

>  <half-life>
1

$$$$
>  <compound>
COC(=O)c1cc2occc2n1Cc1nc(-c2ccc(C)cc2)oc1C

>  <unit text>
min

>  <result operator>
=

>  <half-life>
3.86

$$$$
>  <compound>
O=C1CCC(C(=O)N2CCSCC2)CN1Cc1ccc(Cl)cc1 (stereo unspecified)

>  <unit text>
min

>  <result operator>
=

>  <half-life>
10

$$$$
>  <compound>
Cc1ccc(-n2nc3c(=O)n(CCCC(=O)NCc4ccccc4F)nc(C)c3c2C)cc1

>  <unit text>
min

>  <result operator>
=

>  <half-life>
2.6

$$$$

Attribution: PubChem BioAssay AID1508591
